- assay-target: UP1 D42R/R146A (human, UniProt P09651 1-196, D42R;R146A)
- Sequence (P09651 1-196 D42R/R146A): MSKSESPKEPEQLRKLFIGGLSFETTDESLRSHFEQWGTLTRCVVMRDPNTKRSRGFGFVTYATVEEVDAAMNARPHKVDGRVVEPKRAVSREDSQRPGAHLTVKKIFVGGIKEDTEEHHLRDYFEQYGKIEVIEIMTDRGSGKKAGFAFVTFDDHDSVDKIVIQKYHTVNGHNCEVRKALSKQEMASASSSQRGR
- assay-text: ITC; ITC: 20 mM Tris-HCl pH 7.5, 150 mM NaCl, 20 C; protein 160 uM in syringe, RNA 10 uM in cell
- condition-context: protein: recombinant; tags: C-terminal His6; single strand
measured-metric: Kd (µM)
Write down the numeric answer in µM and omit the unit.

Reported Kd ( TTAGGGTTAGGG (ssDNA) [Telo DNA (TTAGGG)2] ) = 4.03
